target: Xanthine dehydrogenase/oxidase (Bos taurus, UniProt P80457)
Sequence (P80457 whole entry): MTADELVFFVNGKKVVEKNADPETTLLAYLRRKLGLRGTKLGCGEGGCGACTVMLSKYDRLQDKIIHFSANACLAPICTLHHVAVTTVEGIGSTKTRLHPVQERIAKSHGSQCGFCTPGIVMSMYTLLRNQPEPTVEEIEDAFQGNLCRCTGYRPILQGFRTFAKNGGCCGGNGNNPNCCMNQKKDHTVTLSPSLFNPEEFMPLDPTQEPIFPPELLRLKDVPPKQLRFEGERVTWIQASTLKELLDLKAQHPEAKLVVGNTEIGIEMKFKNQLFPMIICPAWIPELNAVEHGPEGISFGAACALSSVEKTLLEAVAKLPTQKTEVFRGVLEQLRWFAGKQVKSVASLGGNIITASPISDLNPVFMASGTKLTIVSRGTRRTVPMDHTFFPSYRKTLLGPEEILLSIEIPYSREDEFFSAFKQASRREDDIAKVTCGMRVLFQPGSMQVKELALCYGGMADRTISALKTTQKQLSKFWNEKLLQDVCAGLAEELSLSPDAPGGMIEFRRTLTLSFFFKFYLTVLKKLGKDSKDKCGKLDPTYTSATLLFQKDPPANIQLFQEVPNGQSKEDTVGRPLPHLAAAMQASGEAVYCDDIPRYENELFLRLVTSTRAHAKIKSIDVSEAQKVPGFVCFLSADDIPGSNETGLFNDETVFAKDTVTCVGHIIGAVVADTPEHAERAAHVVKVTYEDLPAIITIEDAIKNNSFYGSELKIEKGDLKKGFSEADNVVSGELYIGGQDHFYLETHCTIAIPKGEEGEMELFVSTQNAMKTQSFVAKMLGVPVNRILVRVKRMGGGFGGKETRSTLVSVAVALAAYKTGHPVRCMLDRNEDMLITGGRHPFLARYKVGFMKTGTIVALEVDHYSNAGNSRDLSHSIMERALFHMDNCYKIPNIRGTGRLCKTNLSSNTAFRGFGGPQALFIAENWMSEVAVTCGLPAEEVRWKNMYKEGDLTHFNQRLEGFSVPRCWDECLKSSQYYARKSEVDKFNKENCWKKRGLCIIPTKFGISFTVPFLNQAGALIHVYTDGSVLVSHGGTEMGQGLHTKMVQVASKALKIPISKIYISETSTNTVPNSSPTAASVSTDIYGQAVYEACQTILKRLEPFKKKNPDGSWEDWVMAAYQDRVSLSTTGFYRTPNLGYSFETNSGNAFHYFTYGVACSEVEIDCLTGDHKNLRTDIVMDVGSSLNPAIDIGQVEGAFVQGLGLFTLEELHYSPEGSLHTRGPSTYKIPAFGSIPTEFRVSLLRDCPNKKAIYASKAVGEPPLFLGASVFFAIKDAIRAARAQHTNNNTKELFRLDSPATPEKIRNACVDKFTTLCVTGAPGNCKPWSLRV
valueType: IC50 (µM)

compound: O=C(/C=C/c1ccc(O)cc1)c1ccc(O)cc1O [ISOLIQUIRITIGENIN]
experimentalSystem: Xanthine dehydrogenase/oxidase (Bos taurus, UniProt P80457)
IC50, µM: 47.3
--
compound: O=C(/C=C/c1cccc(O)c1)c1ccc(O)cc1O
experimentalSystem: Xanthine dehydrogenase/oxidase (Bos taurus, UniProt P80457)
IC50, µM: 108
--
compound: O=C(/C=C/c1ccccc1O)c1ccc(O)cc1O
experimentalSystem: Xanthine dehydrogenase/oxidase (Bos taurus, UniProt P80457)
IC50, µM: 56.8

[I] O=C(/C=C/c1cccc(O)c1)c1ccccc1O
[II] O=C(/C=C/c1cccc(O)c1)c1ccccc1 [3-HYDROXY CHALCONE]
Pick one: I or II . Which one has the lower reported IC50? Your choice should be expressed through its label. I
(I: 91.8 µM, II: 228 µM)

[1] O=C(/C=C/c1ccccc1)c1ccc(O)cc1O [2',4'-DIHYDROXYCHALCONE]
[2] O=C(/C=C/c1ccccc1)c1ccccc1O [2'-HYDROXYCHALCONE]
Compare 1 and 2 by numeric IC50 and name the larger one. Use the label to indicate which entry you chose. 1
(1: 107 µM, 2: 71.3 µM)

[1] O=C(/C=C/c1ccc(O)cc1)c1ccccc1O
[2] O=C(/C=C/c1ccc(O)cc1)c1ccccc1 [4-HYDROXYCHALCONE]
Parameter check: reported IC50 is higher for which label, 1 or 2 ? // output: label of the selected item 2

Data credit: ChEMBL document CHEMBL4043097
